System: Nucleic Acid
assay_comment: Binding affinity to Escherichia coli 23S rRNA assessed as increase in classical-state occupancy by tRNA at 20 uM by smFRET
Format: nucleic-acid assay
conditions: MRE600
readout_kind: Activity (%)
Give bare numbers, in %.

Please review the following examples before continuing.
CN[C@@H]1[C@@H](O)[C@@H](O[C@@H]2[C@@H](O)[C@H](O[C@H]3O[C@H]([C@@H](C)N)CC[C@H]3N)[C@@H](N)C[C@H]2N)OC[C@]1(C)O ... 5
NC[C@@H]1O[C@H](O[C@H]2[C@@H](O)[C@H](O[C@@H]3[C@@H](O)[C@H](N)C[C@H](N)[C@H]3O[C@H]3O[C@H](CO)[C@@H](O)[C@H](O)[C@H]3N)O[C@@H]2CO)[C@H](N)[C@@H](O)[C@@H]1O ... 2
CN[C@@H]1[C@@H](O)[C@@H](O[C@@H]2[C@@H](O)[C@H](O[C@H]3O[C@H]([C@@H](C)NC)CC[C@H]3N)[C@@H](N)C[C@H]2N)OC[C@]1(C)O ... 5

For each of the compounds below, note its Activity.
1. NC[C@@H]1O[C@@H](O[C@H]2[C@H](O)[C@@H](O[C@H]3O[C@H](CO)[C@@H](O)[C@H](N)[C@H]3O)[C@H](N)C[C@@H]2N)[C@@H](O)[C@H](O)[C@H]1O
2. NC[C@H]1O[C@H](O[C@H]2[C@H](O)[C@@H](O[C@H]3O[C@H](CO)[C@@H](O)[C@H](N)[C@H]3O)[C@H](N)C[C@@H]2N)[C@H](N)[C@@H](O)[C@@H]1O

Marked response:
[8, 8]

---

Tested on: Nucleic Acid
assay_comment: Binding affinity to Escherichia coli 16S rRNA helix 44 assessed as tRNA translocation rate
Assay type: nucleic-acid assay
conditions: MRE600
readout_kind: Activity

CN[C@@H]1[C@@H](O)[C@@H](O[C@@H]2[C@@H](O)[C@H](O[C@H]3O[C@H]([C@@H](C)N)CC[C@H]3N)[C@@H](N)C[C@H]2N)OC[C@]1(C)O ... 0.42 s⁻¹
NC[C@@H]1O[C@H](O[C@H]2[C@@H](O)[C@H](O[C@@H]3[C@@H](O)[C@H](N)C[C@H](N)[C@H]3O[C@H]3O[C@H](CO)[C@@H](O)[C@H](O)[C@H]3N)O[C@@H]2CO)[C@H](N)[C@@H](O)[C@@H]1O ... 0.51 s⁻¹
NC[C@H]1O[C@H](O[C@H]2[C@H](O)[C@@H](O[C@H]3O[C@H](CO)[C@@H](O)[C@H](N)[C@H]3O)[C@H](N)C[C@@H]2N)[C@H](N)[C@@H](O)[C@@H]1O ... 0.27 s⁻¹

Give measured Activity for every item shown.
1. NC[C@@H]1O[C@@H](O[C@H]2[C@H](O)[C@@H](O[C@H]3O[C@H](CO)[C@@H](O)[C@H](N)[C@H]3O)[C@H](N)C[C@@H]2N)[C@@H](O)[C@H](O)[C@H]1O
2. CN[C@@H]1[C@@H](O)[C@@H](O[C@@H]2[C@@H](O)[C@H](O[C@H]3O[C@H]([C@@H](C)NC)CC[C@H]3N)[C@@H](N)C[C@H]2N)OC[C@]1(C)O

Marked response:
1. 0.27 s⁻¹
2. 0.42 s⁻¹

---

I'd be grateful if you could share measured Activity for these entries.
Tested on: Nucleic Acid
assay_comment: Binding affinity to Escherichia coli 16S rRNA helix 44 assessed as classical-state occupancy by tRNA
Type: nucleic-acid assay
Parameters: concentration or dose not given beside the values
conditions: MRE600
Numbers only, in %.

Solved entries:
CN[C@@H]1[C@@H](O)[C@@H](O[C@@H]2[C@@H](O)[C@H](O[C@H]3O[C@H]([C@@H](C)NC)CC[C@H]3N)[C@@H](N)C[C@H]2N)OC[C@]1(C)O ... 67.2
CN[C@@H]1[C@@H](O)[C@@H](O[C@@H]2[C@@H](O)[C@H](O[C@H]3O[C@H]([C@@H](C)N)CC[C@H]3N)[C@@H](N)C[C@H]2N)OC[C@]1(C)O ... 67.2
NC[C@@H]1O[C@H](O[C@H]2[C@@H](O)[C@H](O[C@@H]3[C@@H](O)[C@H](N)C[C@H](N)[C@H]3O[C@H]3O[C@H](CO)[C@@H](O)[C@H](O)[C@H]3N)O[C@@H]2CO)[C@H](N)[C@@H](O)[C@@H]1O ... 63.9
NC[C@H]1O[C@H](O[C@H]2[C@H](O)[C@@H](O[C@H]3O[C@H](CO)[C@@H](O)[C@H](N)[C@H]3O)[C@H](N)C[C@@H]2N)[C@H](N)[C@@H](O)[C@@H]1O ... 69.6

Exam item: Give its Activity value. Item: `NC[C@@H]1O[C@@H](O[C@H]2[C@H](O)[C@@H](O[C@H]3O[C@H](CO)[C@@H](O)[C@H](N)[C@H]3O)[C@H](N)C[C@@H]2N)[C@@H](O)[C@H](O)[C@H]1O`
Marked response: 69.6
